test system: ECHCG (Barnyardgrass); experiment: Preemergence herbicidal evaluation; format: in vivo, Echinochloa crus-galli; details: rate 0.0625 kg/ha; rated 4-5 weeks after treatment
readout: Preemergence herbicidal rating ECHCG

molecule: Cn1c(C(F)(F)F)cc(=O)n(-c2cc(N=C3SCC(=O)N3C3CCOC3=O)c(Cl)cc2F)c1=O (stereo not shown) [Compound 73]
observed: 0.0

// each listed molecule needs a value for Preemergence herbicidal rating ECHCG
1. CCOP(=O)(CN1C(=O)CSC1=Nc1cc(-n2c(=O)cc(C(F)(F)F)n(C)c2=O)c(F)cc1Cl)OCC [Compound 35]
2. O=C(O)CC1SC(=Nc2cc(N3C(=O)C4=C(CCCC4)C3=O)c(F)cc2Cl)N(CC(=O)O)C1=O (stereo not shown) [Compound 48]
3. Cn1c(C(F)(F)F)cc(=O)n(-c2cc(N=C3SCC(=O)N3Cc3ccco3)c(Cl)cc2F)c1=O [Compound 122]
4. Cn1c(C(F)(F)F)cc(=O)n(-c2cc(N=C3SCC(=O)N3CCC(=O)O)c(Cl)cc2F)c1=O [Compound 30]
5. CCOC(=O)CN1C(=O)C(CC(=O)OC(C)C)SC1=Nc1cc(-n2c(=O)cc(C(F)(F)F)n(C)c2=O)c(F)cc1Cl (stereo not shown) [Compound 60]
6. CCOC(=O)[C@H](C)N1C(=O)CSC1=Nc1cc(-n2c(=O)cc(C(F)(F)F)n(C)c2=O)c(F)cc1Cl [Compound 76]
7. Cn1c(C(F)(F)F)cc(=O)n(-c2cc(N=C3SCC(=O)N3CCC(=O)O)c(Cl)cc2F)c1=O [Compound 31]

A:
1. 0.0
2. 0.0
3. 0.0
4. 0.0
5. 0.0
6. 1.0
7. 0.0

Hello, I would appreciate it if you could give Preemergence herbicidal rating ECHCG for each entry below.
1. C#CCOC(=O)CC1SC(=Nc2cc(-n3c(=O)cc(C(F)(F)F)n(C)c3=O)c(F)cc2Cl)N(CC(=O)OCC)C1=O (stereo not shown) [Compound 59]
2. CCOC(=O)CN1C(=O)C(CC(=O)OCc2ccccc2)OC1=Nc1cc(-n2c(=O)cc(C(F)(F)F)n(C)c2=O)c(F)cc1Cl (stereo not shown) [Compound 40]

A:
1. 0.5
2. 0.0

// provenance: patent US20020137929A1
